// values below are reported Post-emergence action against MATIN in %
# Tested on: Matricaria inodora
# Test Summary: Post-emergence herbicidal action against MATIN
# Type: in vivo
# Test Settings: 80 g/ha, visual assessment about 3 weeks after treatment
# Experimental: Seeds of monocotyledonous and dicotyledonous weed and crop plants are laid out in sandy loam soil in wood-fiber pots, covered with soil and cultivated in a greenhouse under good growth conditions. 2 to 3 weeks after sowing, the test plants are treated at the one-leaf stage. […]
Could you give the number and then its unit, please?

INSERT INTO results (structure_string, system, result) VALUES
  ('CCn1nnnc1NC(=O)c1ccc(C(F)(F)F)c(C(=O)N(C)C)c1Cl', 'Matricaria inodora', '100%'),
  ('CN(C)C(=O)c1c(C(F)(F)F)ccc(C(=O)Nc2nnnn2C)c1Cl', 'Matricaria inodora', '100%'),
  ('CCn1nnnc1NC(=O)c1ccc(C(F)(F)F)c(C(=O)N2CCCC2)c1Cl', 'Matricaria inodora', '100%');

**Q:** Could you share which Post-emergence action against MATIN in % value was measured for CCCn1nnnc1NC(=O)c1ccc(C(F)(F)F)c(C(=O)N2CCCC2)c1Cl ?
**A:** 90%

**Q:** Could you share which Post-emergence action against MATIN in % value was measured for CN(C(=O)c1c(Cl)ccc(C(=O)Nc2nnnn2C)c1Cl)c1ccccc1 ?
**A:** 90%

**Q:** Could you share which Post-emergence action against MATIN in % value was measured for Cn1nnnc1NC(=O)c1ccc(C(F)(F)F)c(C(=O)n2cccn2)c1Cl ?
**A:** 100%

---

// values below are reported Pre-emergence action against DIGSA
# System: Digitaria sanguinalis
# Test Summary: Pre-emergence herbicidal action against DIGSA
# Type: in vivo
# Test Settings: 20 g/ha
Could you give the number and then its unit, please?

Worked set:
INSERT INTO results (molecule, readout_name, result) VALUES
  ('CCOC(=O)[C@@H]1CCCN1C(=O)c1c(C(F)(F)F)ccc(C(=O)Nc2nnnn2CC)c1C [Example 2-399]', 'Pre-emergence action against DIGSA', '90%'),
  ('CCN(CC)C(=O)c1c(C(F)(F)F)ccc(C(=O)Nc2nnnn2CC)c1Cl [Example 2-135]', 'Pre-emergence action against DIGSA', '80%'),
  ('CCN(C(=O)c1c(C(F)(F)F)ccc(C(=O)Nc2nnnn2CC)c1Cl)C1CC1 [Example 2-136]', 'Pre-emergence action against DIGSA', '90%'),
  ('Cc1c(C(=O)Nc2nnnn2C)ccc(C(F)(F)F)c1C(=O)N(C)CC(F)F [Example 1-24]', 'Pre-emergence action against DIGSA', '100%'),
  ('CCN(CC)C(=O)c1c(C(F)(F)F)ccc(C(=O)Nc2nnnn2C)c1C [Example 1-31]', 'Pre-emergence action against DIGSA', '100%');

**Q:** Could you share which Pre-emergence action against DIGSA value was measured for CCn1nnnc1NC(=O)c1ccc(C(F)(F)F)c(C(=O)N(C)CC(F)F)c1Cl [Example 2-128] ?
**A:** 90%

**Q:** Could you share which Pre-emergence action against DIGSA value was measured for Cc1c(C(=O)Nc2nnnn2C)ccc(C(F)(F)F)c1C(=O)N(C)C1CC1 [Example 1-21] ?
**A:** 100%

**Q:** Could you share which Pre-emergence action against DIGSA value was measured for CCOC(=O)[C@@H]1CCCN1C(=O)c1c(C(F)(F)F)ccc(C(=O)Nc2nnnn2C)c1Cl [Example 1-400] ?
**A:** 100%
